Hello, the source for this data is paper PMC9959130, in case you need it.

Assay: Biodistribution in BALB/c nude mice bearing A431-CCK2R/A431-mock xenografts
Format: in vivo
Conditions: female, athymic BALB/c nude, mouse, pancreas, iv, 20 pmol, total radioactivity, xenografted BALB/c nude mice, i.v., 20 pmol, gallium-68, 1 h p.i., mean ± SD n = 4; read-out: Uptake in pancreas
reportedEndpoint: tissue uptake at 1 h (%ID/g)

[[record]]
compound = "CCCC[C@@H](C(=O)N[C@@H](CC(=O)O)C(=O)N(C)[C@@H](Cc1cccc2ccccc12)C(N)=O)N(C)C(=O)[C@H](Cc1c[nH]c2ccccc12)NC(=O)CNC(=O)[C@H](Cc1ccc(O)cc1)NC(=O)[C@H](C)NC(=O)[C@@H](CCC(=O)O)NC(=O)CN1CCN(CC(=O)O)CCN(CC(=O)O)CCN(CC(=O)O)CC1 [[^68Ga]Ga-DOTA-[(N-Me)1Nal^8]MGS5, metal not drawn]"
reportedendpoint = "tissue uptake at 1 h"
outputunit = "%ID/g"
recordednumber = 0.87


---

Assay: Biodistribution in BALB/c nude mice bearing A431-CCK2R/A431-mock xenografts
Type: in vivo
Conditions: female, athymic BALB/c nude, mouse, A431-CCK2R xenograft, iv, 20 pmol, total radioactivity, xenografted BALB/c nude mice, i.v., ~20 pmol, 4 h p.i. (indium-111 or lutetium-177), mean ± SD n = 4; read-out: Uptake in A431-CCK2R xenograft
Where a SMILES comes first, the peptide text is derived from it. [ ]: non-standard residue; d: D form. The star is where a group is joined. DOTA = O=C(O)CN1CCN(CC(=O)O)CCN(CC(=O)*)CCN(CC(=O)O)CC1; 1Nal = N[C@@H](Cc1cccc2ccccc12)C(=O)O; NMeNle = CCCC[C@H](NC)C(=O)O
reportedEndpoint: tissue uptake at 4 h (%ID/g)

[[record]]
compound = "CCCC[C@@H](C(=O)N[C@@H](CC(=O)O)C(=O)N[C@@H](Cc1ccc2ccccc2c1)C(N)=O)N(C)C(=O)[C@H](Cc1c[nH]c2ccccc12)NC(=O)CNC(=O)[C@H](Cc1ccc(O)cc1)NC(=O)[C@H](C)NC(=O)[C@@H](CCC(=O)O)NC(=O)CN1CCN(CC(=O)O)CCN(CC(=O)O)CCN(CC(=O)O)CC1 [[^111In]In-DOTA-[2Nal^8]MGS5, metal not drawn]"
reportedendpoint = "tissue uptake at 4 h"
recordednumber = 25.4

[[record]]
compound = "CCCC[C@@H](C(=O)N[C@@H](CC(=O)O)C(=O)N[C@@H](Cc1cccc2ccccc12)C(=O)NC)N(C)C(=O)[C@H](Cc1c[nH]c2ccccc12)NC(=O)CNC(=O)[C@H](Cc1ccc(O)cc1)NC(=O)[C@H](C)NC(=O)[C@@H](CCC(=O)O)NC(=O)CN1CCN(CC(=O)O)CCN(CC(=O)O)CCN(CC(=O)O)CC1 [[^111In]In-DOTA-MGS5[NHCH3], metal not drawn]"
reportedendpoint = "tissue uptake at 4 h"
recordednumber = 4.16

[[record]]
compound = "CCCC[C@@H](C(=O)N[C@@H](CC(=O)O)C(=O)N(C)[C@@H](Cc1cccc2ccccc12)C(N)=O)N(C)C(=O)[C@H](Cc1c[nH]c2ccccc12)NC(=O)CNC(=O)[C@H](Cc1ccc(O)cc1)NC(=O)[C@H](C)NC(=O)[C@@H](CCC(=O)O)NC(=O)CN1CCN(CC(=O)O)CCN(CC(=O)O)CCN(CC(=O)O)CC1 [[^177Lu]Lu-DOTA-[(N-Me)1Nal^8]MGS5, metal not drawn]"
reportedendpoint = "tissue uptake at 4 h"
recordednumber = 35.1

[[record]]
compound = "CCCC[C@@H](C(=O)N[C@@H](CC(=O)O)C(=O)N[C@@H](Cc1cccc2ccccc12)C(N)=O)N(C)C(=O)[C@H](Cc1c[nH]c2ccccc12)NC(=O)CNC(=O)[C@H](Cc1ccc(O)cc1)NC(=O)[C@H](C)NC(=O)[C@@H](CCCCN)NC(=O)CN1CCN(CC(=O)O)CCN(CC(=O)O)CCN(CC(=O)O)CC1 [[^111In]In-DOTA-[DLys^1]MGS5, metal not drawn] ({DOTA}-[dK]AYGW[NMeNle]D[1Nal]-NH2)"
reportedendpoint = "tissue uptake at 4 h"
recordednumber = 33.9

